Measured values drawn from ChEMBL document CHEMBL1138559 for this set.

- test-name: Cytotoxicity against human MT4 cells by MTT assay
- Type: cell-based
Listing of entries alongside the reported CC50.
measured-parameter: CC50

>>> recorded_result("Cc1c(Sc2ccccc2)n(COCCO)c(=O)[nH]c1=O")
"≤ 399 µM"
>>> recorded_result("CCc1c(Cc2cccc(Br)c2)nc(SCc2ccc(OC)cc2)[nH]c1=O")
"201 µM"
>>> recorded_result("COc1ccc(CSc2nc(Cc3ccc(Br)cc3)c(C)c(=O)[nH]2)cc1")
"> 290 µM"
>>> recorded_result("CCc1c(Cc2ccc(Br)cc2)nc(SCc2ccc(OC)cc2)[nH]c1=O")
"> 281 µM"
>>> recorded_result("COc1ccc(CSc2nc(Cc3ccccc3Br)c(C)c(=O)[nH]2)cc1")
"179 µM"
>>> recorded_result("CCc1c(Cc2cc(C)cc(C)c2)nc(SCc2ccc(OC)cc2)[nH]c1=O")
"> 317 µM"
>>> recorded_result("CCc1c(Cc2cc(C(F)(F)F)cc(C(F)(F)F)c2)nc(SCc2ccc([N+](=O)[O-])cc2)[nH]c1=O")
"> 242 µM"
>>> recorded_result("CCc1c(Cc2cc(C)cc(C)c2)nc(SCc2ccccc2)[nH]c1=O")
"> 343 µM"
>>> recorded_result("COc1ccc(CSc2nc(Cc3ccc(-c4ccccc4)cc3)c(C)c(=O)[nH]2)cc1")
"100 µM"
>>> recorded_result("CCc1c(Cc2cc(C)cc(C)c2)nc(SCc2ccc([N+](=O)[O-])cc2)[nH]c1=O")
"> 305 µM"
>>> recorded_result("COc1ccc(CSc2nc(Cc3cc(C(F)(F)F)cc(C(F)(F)F)c3)c(C)c(=O)[nH]2)cc1")
"> 256 µM"
>>> recorded_result("Cc1c(Cc2cc(C(F)(F)F)cc(C(F)(F)F)c2)nc(SCc2ccc([N+](=O)[O-])cc2)[nH]c1=O")
"> 248 µM"
>>> recorded_result("O=c1[nH]cnc2c1ncn2[C@H]1CC[C@@H](CO)O1")
"≥ 529 µM"
>>> recorded_result("CCc1c(Cc2cc(C(F)(F)F)cc(C(F)(F)F)c2)nc(SCc2ccc(OC)cc2)[nH]c1=O")
"> 249 µM"
>>> recorded_result("COc1ccc(CSc2nc(Cc3cccc4ccccc34)c(C(C)C)c(=O)[nH]2)cc1")
"37.4 µM"
>>> recorded_result("CCc1c(Cc2ccccc2Br)nc(SCc2ccc(OC)cc2)[nH]c1=O")
"165 µM"
>>> recorded_result("CCc1c(Cc2ccc(-c3ccccc3)cc2)nc(SCc2ccc(OC)cc2)[nH]c1=O")
"194 µM"
>>> recorded_result("Cc1c(Cc2cccc(Br)c2)nc(SCc2ccc([N+](=O)[O-])cc2)[nH]c1=O")
"> 280 µM"
>>> recorded_result("COc1ccc(CSc2nc(Cc3cccc(Br)c3)c(C)c(=O)[nH]2)cc1")
"> 290 µM"
>>> recorded_result("CCc1c(Cc2c(Cl)cccc2Cl)nc(SCc2ccc([N+](=O)[O-])cc2)[nH]c1=O")
"> 278 µM"

###

Listing of entries alongside the reported IC50.
- Test system: Human immunodeficiency virus 2
- test-name: Antiviral activity against HIV2 ROD infected in human MT4 cells assessed as inhibition of virus-induced cytopathic effect after 4 days by MTT assay
- Assay type: functional, organism-based
- settings: Human immunodeficiency virus 2, ROD, MT4, 96 h
measured-parameter: IC50

>>> recorded_result("CCc1c(Cc2cc(C(F)(F)F)cc(C(F)(F)F)c2)nc(SCc2ccc([N+](=O)[O-])cc2)[nH]c1=O")
"> 242 µM"
>>> recorded_result("CCc1c(Cc2cccc(Br)c2)nc(SCc2ccc([N+](=O)[O-])cc2)[nH]c1=O")
"> 187 µM"
>>> recorded_result("CCc1c(Cc2cc(C)cc(C)c2)nc(SCc2ccc([N+](=O)[O-])cc2)[nH]c1=O")
"> 305 µM"
>>> recorded_result("COc1ccc(CSc2nc(Cc3ccccc3Br)c(C)c(=O)[nH]2)cc1")
"> 179 µM"
>>> recorded_result("CCc1c(Cc2ccc(-c3ccccc3)cc2)nc(SCc2ccc(OC)cc2)[nH]c1=O")
"> 194 µM"
